Data provenance: patent US20120251547A1

Readings of normalized MFI for the listed binders
- assay-target: T1, huIL-17RA-FLAG-polyHis (human, UniProt Q96F46 33-320)
- T1 construct: also called IL-17RA-FLAG-pHis; wild-type IL-17RA
- protocol: binning; IL-17RA held by bead mAb K
Please give only the number in your answer, with no unit.

binder="AMH16/AML16 (antibody, IgG2, V domains shown, human mAb from IgG2 XenoMouse mice; also called AM-16; antibody O) VH: QVQLVQSGAEVKKPGASVKVSCKASGYTFTSYGISWVRQAPGQGLEWMGWISAYNGNTKYAQKLQGRVTMTTDTSTSTVYMELRSLRSDDTAVYYCARKQLVFDYWGQGTLVTVSS VL: EIVMTQSPATLSVSPGERATLSCRASQSISTSLAWYQQKPGQAPRLLIYGTSTRATGIPARFSGSGSGTEFTLTISSLQSEDFAVYFCQQYDIWPLTFGGGTKVEIK" readout_value=-111

Exercise: Field request: normalized MFI | item: AMH10/AML10 (antibody, IgG2, V domains shown, human mAb from IgG2 XenoMouse mice; also called AM-10; antibody F) VH: QVQLQESGPGLVKPSQTLSLTCTVSGGSISSGGYYWSWIRQHPGKGLEWIGYIYFSGSAYYNPSLKSRVAISVDTSKNQFSLKLSSVTAADTAVYYCAREYYDSSGYPDAFDIWGQGTMVTVSS VL: DIQMTQSPSSVSASVGDRVTITCRASQGIRSWLAWYQQKPGKAPKLLIFAASSLQSGVPSRFSGSGSGTEFTLTISSLQPEDFATYYCQQANNFPRTFGQGTKVEIK
Key: 4110

Exercise: Field request: normalized MFI | item: AMH20/AML20 (antibody, IgG2, V domains shown, human mAb from IgG2 XenoMouse mice; also called AM-20; antibody R) VH: EVQLVESGGGLVQPGGSLRLSCAASGFTFSSYSMNWVRQAPGKGLEWVSFISARSSTIYYADSVKGRFTISRDNAKNSLYLQMNSLRDEDTAVYYCARPKVGGGMDVWGQGTTVTVSS VL: DIQMTQSPSSLSASVGDRVTITCRASQGISNYLAWYQQKPGKFPELLIYAASTLQSGVPSRFSGSGSGTDFTLTISSLQPEDVATYYCQKYNRAPFTFGPGTKVDIK
Key: -29
